Give Inhibition rate on human cancer cells for every item shown.
system: colon cancer HCT116; test: In vitro cell inhibition assay, colon cancer HCT116; type: cell-based, human; details: HCT 116, 1.0 μM
Response body: numeric value in %, unit text excluded.

Record summary for COC=C(C(=O)OC)c1ccccc1COc1ccc2c3c(c(=O)oc2c1)CCCC3 [Compound 28-128] : reported Inhibition rate on human cancer cells = 100

Record summary for CCCCc1c(C)c2ccc(OCc3ccccc3/C(=C\OC)C(=O)OC)cc2oc1=O [Compound 28-72, coumoxystrobin] : reported Inhibition rate on human cancer cells = 99

Record summary for COC=C(C(=O)OC)c1ccccc1COc1ccc2c3c(c(=O)oc2c1C)CCCC3 [Compound 28-129] : reported Inhibition rate on human cancer cells = 100

Record summary for N.N.[Cl][Pt][Cl] [Cisplatin, reference compound] : reported Inhibition rate on human cancer cells = 5
